Catalogue of CC50 at 48 h readings, one per entry.
Method: Cytotoxicity in PBMCs by MTS assay
Assay type: cell-based
Protocol conditions: human, peripheral blood mononuclear cells (PBMCs), PHA-stimulated, HIV-negative PBMCs
Measurement name: CC50 at 48 h (µM)

INSERT INTO results (chem_smiles, measurement_name, val) VALUES
  ('COc1cc(F)ccc1-c1n[nH]cc1-c1cc(O)ccc1O', 'CC50 at 48 h', 98.2),
  ('COc1ccc(OC)c(-c2n[nH]cc2-c2cc(O)ccc2O)c1', 'CC50 at 48 h', 83.2),
  ('COc1ccc(C(=O)c2coc3ccc(O)cc23)c(OC)c1OC', 'CC50 at 48 h', 89.5),
  ('COc1ccc(OC)c(C(=O)c2coc3c(C)cc(OC)c(C)c23)c1', 'CC50 at 48 h', 41.3);
